Would you kindly list clearance for each of these compounds?
Test: Pharmacokinetics study of the compounds in C57BL/6 mice
Format: in vivo
Settings: male, mouse, single intravenous and oral dose, plasma
Give bare numbers, in mL/min/kg.

COMPOUND	VALUE UNITS	clearance
Cc1c(NS(C)(=O)=O)cccc1-c1c(C)n(C2CC2)c(=O)c2c(Nc3ccc(I)cc3F)c(C)c(=O)oc12 (single isomer, unassigned) [WX113]	mL/min/kg	2.92
Cc1c(NS(C)(=O)=O)cccc1-c1c(C)n(C2CC2)c(=O)c2c(Nc3ccc(I)cc3F)c(C)c(=O)oc12 [WX086]	mL/min/kg	2.2
Cc1c(Nc2ccc(I)cc2F)c2c(=O)n(C3CC3)c(C)c(-c3cccc(CS(C)(=O)=O)c3)c2oc1=O [WX071]	mL/min/kg	0.912
CC(=O)Nc1cccc(-c2c(C)n(C3CC3)c(=O)c3c(Nc4ccc(I)cc4F)c(C)c(=O)oc23)c1 [WX034]	mL/min/kg	1.84

// next entry
*Q* Record request: clearance value, item Cc1c(Nc2ccc(I)cc2F)c2c(=O)n(C3CC3)c(C)c(-c3cccc(NS(C)(=O)=O)c3)c2oc1=O [WX066]
*A* 1.85

----------
Could you please report measured IC50 for the items listed next?
Tested on: A375 cells
Assay: Cell viability experiment (Cell Titer-Glo), A375
Assay type: cell-based
Conditions: Homo sapiens, A-375, 72 h, read-out: A375 IC50, A375 cells, 3 days incubation
Kindly write the number and append the unit.

Some solved cases for reference:
COMPOUND SMILES	ENDPOINT LABEL	MEASURED RESULT
CC(=O)Nc1cccc(-c2c(C)n(C3CC3)c(=O)c3c(Nc4ccc(I)cc4F)c(C)c(=O)oc23)c1C	IC50	2.47 nM
Cc1c(CS(=O)(=O)C2CC2)cccc1-c1c(C)n(C2CC2)c(=O)c2c(Nc3ccc(I)cc3F)c(C)c(=O)oc12	IC50	2.3 nM
Cc1c(NS(C)(=O)=O)cccc1-c1c(C)n(C2CC2)c(=O)c2c(Nc3ccc(I)cc3F)c(C)c(=O)oc12	IC50	0.4 nM

*Q* // returns reported IC50 for input Cc1c(CS(C)(=O)=O)cccc1-c1c(C)n(C2CC2)c(=O)c2c(Nc3ccc(I)cc3F)c(C)c(=O)oc12
*A* 2.32 nM

----------
Target: activated MEK1 (Homo sapiens, UniProt Q02750)
Construct: purchased Millipore 14-429
Sequence (Q02750 whole entry): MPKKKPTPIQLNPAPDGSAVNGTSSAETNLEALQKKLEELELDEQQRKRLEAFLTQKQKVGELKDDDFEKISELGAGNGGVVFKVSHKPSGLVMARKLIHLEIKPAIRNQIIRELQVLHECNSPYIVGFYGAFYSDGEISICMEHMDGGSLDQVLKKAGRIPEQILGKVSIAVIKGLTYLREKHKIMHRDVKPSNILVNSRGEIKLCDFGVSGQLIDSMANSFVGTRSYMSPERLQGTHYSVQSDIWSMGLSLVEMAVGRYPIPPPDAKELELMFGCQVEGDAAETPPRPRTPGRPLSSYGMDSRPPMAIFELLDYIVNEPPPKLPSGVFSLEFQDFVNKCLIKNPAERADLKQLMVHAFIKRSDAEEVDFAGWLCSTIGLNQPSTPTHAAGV
Test: MEK Lance Ultra experiment
Assay type: biochemical
Settings: 0.07 nM activated MEK1, 2 nM non-activated ERK, 50 μM ATP; read-out: MEK potency IC50
ENDPOINT LABEL: IC50
Answer format reminder: number followed by unit.

// below: answered compounds
COMPOUND	ENDPOINT LABEL	MEASURED RESULT
Cc1c(Nc2ccc(I)cc2F)c2c(=O)n(C3CC3)c(C)c(-c3cccc(N[S+]([O-])C(C)(C)C)c3)c2oc1=O (stereo not shown) [WX091]	IC50	0.128 µM
Cc1[nH]c(=O)c2c(Nc3ccc(I)cc3F)c(C)c(=O)oc2c1-c1cccc(NS(C)(=O)=O)c1C (single isomer, unassigned) [WX118]	IC50	0.0327 µM
Cc1c(Nc2ccc(I)cc2F)c2c(=O)n(C3CC3)c(C)c(-c3cccc(C(N)=O)c3)c2oc1=O [WX112]	IC50	0.0529 µM
Cc1[nH]c(=O)c2c(Nc3ccc(I)cc3F)c(C)c(=O)oc2c1-c1cccc(NS(C)(=O)=O)c1C (single isomer, unassigned) [WX119]	IC50	0.0182 µM
Cc1c(Nc2ccc(I)cc2F)c2c(=O)n(C3CC3)c(C)c(-c3cccc(C[S+](C)[O-])c3)c2oc1=O (stereo not shown) [WX068]	IC50	0.035 µM
Cc1c(Nc2ccc(I)cc2F)c2c(=O)n(C3CC3)c(C)c(-c3cccc(NC(=O)NC(C)(C)C)c3)c2oc1=O [WX104]	IC50	0.119 µM

Here's the next entry for you.
*Q* Return reported IC50; argument: CC(=O)Nc1cccc(-c2c(C)n(CC(O)CO)c(=O)c3c(Nc4ccc(I)cc4F)c(C)c(=O)oc23)c1 (stereo not shown) [WX058]
*A* 0.083 µM
